Hey, just so you know, these numbers are from patent US4174396A.

Experiment notes: Acute toxicity (LD50, intraperitoneal, Litchfield-Wilcoxen)
Assay type: in vivo, albino Swiss I.C.R. mice
Particulars: mouse, in vivo, ip, mice, both sexes, deaths noted 48 hours after treatment
Protocol: Acute toxicity studies have been made in albino Swiss I.C.R. mice, of both sexes, of a weight of 30±2 g, kept without food for 24 hours prior to the experiment. Temperature and relative humidity of the atmosphere were kept constant. The products were administered intraperitoneally, the number of deaths having been noted 48 hours after treatment. The lethal dose (LD50) was calculated by the Litchfield-Wilcoxen test.
Experimental readout: LD50 at 48 h (mg/kg)
Express your answer in mg/kg, writing the number without its unit.

# compound CC1=CC2Cc3ccsc3C(C1)N2C (stereo not shown) [I] ; its LD50 at 48 h = 159
